# IC50 values compiled below
Test System: hPAD4 enzyme (Homo sapiens (Human), UniProt Q9UM07)
Sequence (Q9UM07 whole entry): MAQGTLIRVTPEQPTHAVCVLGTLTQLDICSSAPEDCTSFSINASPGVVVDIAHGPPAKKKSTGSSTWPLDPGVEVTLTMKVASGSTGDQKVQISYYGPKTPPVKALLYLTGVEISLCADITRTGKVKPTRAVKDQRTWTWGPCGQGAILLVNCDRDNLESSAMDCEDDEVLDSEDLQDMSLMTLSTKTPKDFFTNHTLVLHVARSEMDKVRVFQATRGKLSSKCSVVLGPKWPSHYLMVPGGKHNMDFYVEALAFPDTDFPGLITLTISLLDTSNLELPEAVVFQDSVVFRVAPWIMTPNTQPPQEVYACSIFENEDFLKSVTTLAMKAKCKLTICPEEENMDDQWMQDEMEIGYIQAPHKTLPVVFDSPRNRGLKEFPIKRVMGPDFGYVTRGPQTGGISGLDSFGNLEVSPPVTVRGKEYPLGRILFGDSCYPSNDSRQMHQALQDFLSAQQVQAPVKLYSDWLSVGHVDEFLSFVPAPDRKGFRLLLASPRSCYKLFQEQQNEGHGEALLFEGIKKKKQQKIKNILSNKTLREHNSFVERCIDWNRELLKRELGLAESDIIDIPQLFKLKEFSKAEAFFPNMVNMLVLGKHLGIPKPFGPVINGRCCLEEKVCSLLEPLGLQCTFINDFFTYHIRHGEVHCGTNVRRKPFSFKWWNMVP
Assay Protocol: RFMS1 assay (RapidFire mass spectrometry, BAEE substrate)
Type: biochemical
Assay Conditions: 5 nM hPAD4, 250 μM BAEE, 30 min preincubation at 37° C., 90 min reaction; read-out: RFMS 1 IC50
Readout Type: IC50

- COc1cccc2cc(-c3nc4cc5c(cc4n3C)CCN(C[C@H](N)CF)C5=O)n(Cc3ncco3)c12 [Example 119]: 11 to 100 nM
- C[C@@H](Cn1ccnc1)Oc1cccc2cc(-c3nc4cc5c(cc4n3C)CCN(C[C@H](N)CF)C5=O)n(CC3CC3)c12 [Example 222]: 11 to 100 nM
- Cn1c(-c2cc3cccc(OCCn4cnnc4)c3n2CC2CC2)nc2cc3c(cc21)CCN(C[C@H]1COCCN1)C3=O [Example 234]: 11 to 100 nM
- Cn1c(-c2cc3cccc(CCCn4ccnc4)c3n2CC2CC2)nc2cc3c(cc21)CCN(C[C@H](N)CF)C3=O [Example 228]: ≤ 10 nM
- Cn1c(-c2cc3cccc(OC[C@@H]4CNC(=O)O4)c3n2CC2CC2)nc2cc3c(cc21)CCN(C[C@H](N)CF)C3=O [Example 206]: ≤ 10 nM
- C[C@@H](COc1cccc2cc(-c3nc4cc5c(cc4n3C)CCN(C[C@H](N)CF)C5=O)n(CC3CC3)c12)n1ccnc1 [Example 212]: ≤ 10 nM
- Cn1c(-c2cc3cccc(OCCn4ccnn4)c3n2CC2CC2)nc2cc3c(cc21)CCN(C[C@H](N)CF)C3=O [Example 181]: ≤ 10 nM

====

Test System: hPAD4 enzyme (Homo sapiens (Human))
Assay Protocol: RFMS2 assay (RapidFire mass spectrometry, TSTGGRQGSHH peptide substrate)
Assay type: biochemical
Assay Conditions: 35 nM recombinant human PAD4, 500 μM TSTGGRQGSHH peptide, 30 minutes at room temperature; read-out: RFMS 2 IC50
pIC50: −log10 of the molar value.
Readout Type: pIC50

* Cn1c(-c2cc3cccc(OCC4(C)CNC(=O)C4)c3n2CC2CC2)nc2cc3c(cc21)CCN(C[C@H](N)CF)C3=O (single isomer, unassigned) [Example 220] | 6.00 to 6.30
* Cc1ccc2cc(-c3nc4cc5c(cc4n3C)CCN(C[C@H](N)CF)C5=O)n(CC3CC3)c2c1 [Example 47] | 6.30 to 7.00
* CCCN[C@H](C)CN1CCc2cc3c(cc2C1=O)nc(-c1cc2ccccc2n1CC1CC1)n3C [Example 4] | < 6.00
* CC[C@@H](N)CN1CCc2cc3c(cc2C1=O)nc(-c1cc2ccccc2n1CC1CC1)n3C [Example 9] | 6.30 to 7.00
* Cn1cncc1CCOc1cccc2cc(-c3nc4cc5c(cc4n3C)CCN(C[C@H](N)CF)C5=O)n(CC3CC3)c12 [Example 169] | 6.30 to 7.00
* Cc1cccc2cc(-c3nc4cc5c(cc4n3C)CCN(C[C@H](N)CF)C5=O)n(CC3CC3)c12 [Example 48] | 6.30 to 7.00
* CN[C@H](C)CN1CCc2cc3c(cc2C1=O)nc(-c1cc2ccccc2n1CC1CC1)n3C [Example 1] | 6.30 to 7.00
* COc1cccc2cc(-c3nc4cc5c(cc4n3C)CCN(C[C@H](N)CF)C5=O)n(Cc3cn(C)cn3)c12 [Example 114] | 6.00 to 6.30
* Cn1c(-c2cc3cccc(OCC4(C)CNC(=O)C4)c3n2CC2CC2)nc2cc3c(cc21)CCN(C[C@H](N)CF)C3=O (single isomer, unassigned) [Example 221] | 6.30 to 7.00
* C[C@H](CN1CCc2cc3c(cc2C1=O)nc(-c1cc2ccccc2n1CC1CC1)n3C)NCCF [Example 3] | < 6.00
* CN(C)C(=O)c1ccc2cc(-c3nc4cc5c(cc4n3C)CCN(C[C@H](N)CF)C5=O)n(CC3CC3)c2n1 [Example 64] | 6.00 to 6.30
* CNC(=O)OCCOc1cccc2cc(-c3nc4cc5c(cc4n3C)CCN(C[C@H](N)CF)C5=O)n(CC3CC3)c12 [Example 211] | 6.30 to 7.00
* COc1cccc2cc(-c3nc4cc5c(cc4n3C)CCN(C[C@@H](C)N)C5=O)n(CC3CC3)c12 [Example 35] | 7.00 to 7.96
* CC(Oc1cccc2cc(-c3nc4cc5c(cc4n3C)CCN(C[C@H](N)CF)C5=O)n(CC3CC3)c12)c1ccno1 (some centres unmarked) [Example 197] | 6.30 to 7.00

====

# pIC50 values compiled below
Test System: hPAD4 enzyme (Homo sapiens (Human))
Assay Protocol: RFMS2 assay (RapidFire mass spectrometry, TSTGGRQGSHH peptide substrate)
Type: biochemical
Assay Conditions: 35 nM recombinant human PAD4, 500 μM TSTGGRQGSHH peptide, 30 minutes at room temperature; read-out: RFMS 2 IC50
pIC50: −log10 of the molar value.
Readout Type: pIC50

- Cn1c(-c2cc3ccc(C(C)(C)C)cc3n2CC2CC2)nc2cc3c(cc21)CCN(C[C@H](N)CF)C3=O: 6.00 to 6.30
- C[C@@H](N)CN1CCc2cc3c(cc2C1=O)nc(-c1c(F)c2ccccc2n1CC1CC1)n3C: 6.00 to 6.30
- Cn1c(-c2cc3cccc(OCC4CNC(=O)C4)c3n2CC2CC2)nc2cc3c(cc21)CCN(C[C@H](N)CF)C3=O (some centres unmarked): 7.00 to 7.96
- Cc1ccc2cc(-c3nc4cc5c(cc4n3C)CCN(C[C@@H](C)N)C5=O)n(CC3CC3)c2c1C: 6.30 to 7.00
- Cn1c(-c2cc3ccc(Cl)nc3n2CC2CC2)nc2cc3c(cc21)CCN(C[C@H](N)CF)C3=O: 6.30 to 7.00
- C[C@@H](N)CN1CCc2cc3c(cc2C1=O)nc(-c1cc2ccc(Cl)nc2n1CC1CC1)n3C: 6.30 to 7.00
- Cn1c(-c2cc3cccc(C#N)c3n2Cc2ccno2)nc2cc3c(cc21)CCN(C[C@H](N)CF)C3=O: 6.00 to 6.30
- COc1cccc2cc(-c3nc4cc5c(cc4n3C)CCN(C[C@H](N)CF)C5=O)n(Cc3ccc(C#N)o3)c12: 7.00 to 7.96
- Cn1c(-c2cc3cccc(OC[C@H]4COCCN4)c3n2CC2CC2)nc2cc3c(cc21)CCN(C[C@H](N)CF)C3=O: 6.00 to 6.30
- COc1c(F)ccc2cc(-c3nc4cc5c(cc4n3C)CCN(C[C@H](N)CF)C5=O)n(CC3CC3)c12: 6.30 to 7.00
- Cn1c(-c2cc3ccc(C(=O)O)cc3n2CC2CC2)nc2cc3c(cc21)CCN(C[C@H](N)CF)C3=O: < 6.00
- Cn1c(-c2cc3cccc(/C=C/Cn4ccnc4)c3n2CC2CC2)nc2cc3c(cc21)CCN(C[C@H](N)CF)C3=O: 7.00 to 7.96
- C[C@@H](N)CN1CCc2cc3c(cc2C1=O)nc(-c1cc2cccc(F)c2n1CC1CC1)n3C: 6.30 to 7.00
- C[C@@H](N)CN1CCc2cc3c(cc2C1=O)nc(-c1cc2ccccc2n1CC(C)(C)O)n3C: < 6.00
- Cn1c(-c2cc3cccc(OCC4CCNC4=O)c3n2CC2CC2)nc2cc3c(cc21)CCN(C[C@H](N)CF)C3=O (some centres unmarked): 6.30 to 7.00
- Cc1ncn(CCOc2cccc3cc(-c4nc5cc6c(cc5n4C)CCN(C[C@H](N)CF)C6=O)n(CC4CC4)c23)n1: 7.00 to 7.96
- CCc1ccc2cc(-c3nc4cc5c(cc4n3C)CCN(C[C@@H](C)N)C5=O)n(CC3CC3)c2c1: 6.30 to 7.00
- C[C@@H](CCO)Oc1cccc2cc(-c3nc4cc5c(cc4n3C)CCN(C[C@H](N)CF)C5=O)n(CC3CC3)c12: 6.30 to 7.00
- Cc1c(-c2nc3cc4c(cc3n2C)CCN(C[C@@H](C)N)C4=O)n(CC2CC2)c2ccccc12: < 6.00
- Cn1c(-c2cc3cccnc3n2CC2CC2)nc2cc3c(cc21)CCN(C[C@H](N)CF)C3=O: < 6.00
- Cn1c(-c2cc3cccc(OCCn4cccc4)c3n2CC2CC2)nc2cc3c(cc21)CCN(C[C@H](N)CF)C3=O: 6.30 to 7.00
- Cn1c(-c2cc3cccc(OCC4CCOCC4)c3n2CC2CC2)nc2cc3c(cc21)CCN(C[C@H](N)CF)C3=O: 6.00 to 6.30
- COCC(C)n1c(-c2nc3cc4c(cc3n2C)CCN(C[C@H](N)CF)C4=O)cc2cccc(OC)c21 (single isomer, unassigned) [Example 123a]: < 6.00
- Cn1c(-c2cc3cccc(OCCn4ncnc4C#N)c3n2CC2CC2)nc2cc3c(cc21)CCN(C[C@H](N)CF)C3=O: < 6.00
- COc1ccc2cc(-c3nc4cc5c(cc4n3C)CCN(C[C@H](N)CF)C5=O)n(CC3CC3)c2n1: 6.30 to 7.00
- C[C@@H](O)CN1CCc2cc3c(cc2C1=O)nc(-c1cc2ccccc2n1CC1CC1)n3C: < 6.00
- C[C@@H](N)CN1CCc2cc3c(cc2C1=O)nc(-c1cc2ccccc2n1CC1CCC1)n3C: 6.30 to 7.00
- COCCn1c(-c2nc3cc4c(cc3n2C)CCN(C[C@H](N)CF)C4=O)cc2ccc(OC)nc21: < 6.00
- Cn1c(-c2cc3cccc(OCCc4cc[nH]c4)c3n2CC2CC2)nc2cc3c(cc21)CCN(C[C@H](N)CF)C3=O: 6.30 to 7.00
